Tested on: RARa homodimer (NR concentration 270 nM)
Assay: PBM binding z-score (relative to random genomic background probes); higher = stronger binding; sequences stand for … in GC…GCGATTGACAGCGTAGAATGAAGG
assay_endpoint: PBM binding z-score

Entry under review: CTCGAAAGGTCGGTTGAGTTGAGTATACGGATAA . Reported PBM binding z-score?
0.0679

Ok, now CCTTACGGGTCACGAAGTTATAGCACGACGAGCG
0.765

Ok, now CAAACTAGGTCAAGAGGTGAAAGTCCGCTTCCCG
1.4

Ok, now CGTACTGGGCCAAGGTCATTGATCAGTCAAAGCA
-0.0917

Ok, now ATCTCTAGGTAACCAAGATCAGTGAATGCCGAAC
0.145

Ok, now CCAGACAGGTGAGAAGGTAACTCATCCTCGATTA
0.718

Ok, now GGAACGAGTGCAAGTTGATAGCAGAGTTTGATGG
-1.23

Ok, now TGAATGAGGTTGAAGATCAGGGAACGTGGCGTCG
-0.208
